target: HLA-B*3501 (human); experiment: competition vs 125I probe peptide, purified HLA
ASSAY READOUT: IC50 (nM)
// return numeric value only (unit: nM, not printed)

INSERT INTO results (binder, assay_readout, recorded_number) VALUES
  ('FPKAGLLIIV [MAGE3.196.F1 FPKAGLLIIV]', 'IC50', 878);

Reported IC50 for FPRALIETSYV [MAGE2.274.F1 FPRALIETSYV] was 4500

Reported IC50 for FPIGHLYIFI [MAGE3.170.F1I10 FPIGHLYIFI] was 139

Reported IC50 for FPRALVETSYV [MAGE3.274.F1 FPRALVETSYV] was 4240

Provenance of the data: patent US20040053822A1
